// data source = patent US20170253607A1

test.target: HIV-1 PR (Human immunodeficiency virus type 1 group M subtype B)
run.description: HIV-protease inhibitory activity assay (FRET peptide substrate)
measurement.conditions: Test Example 1
Define the label as Criterion met when IC50 is strictly less than 2 nM and as Criterion not met in all remaining cases.

Example entries and their recorded answers appear below.
| molecule | assigned.label |
| --- | --- |
| CC1(C)CCc2sc(NC(=O)c3ccccc3CNc3ccc(CC(NC(=O)OC4COC5OCCC45)C(O)CN(CC4CCC4)S(=O)(=O)c4ccc5ncsc5c4)cc3)c(C(=O)O)c2C1 (stereo not shown) | Criterion not met |
| COc1ccc(S(=O)(=O)N(CC(C)C)CC(O)C(Cc2ccc(COc3ccc4c(c3C(=O)O)CC(C)(C)CC4)cc2)NC(=O)OC2COC3OCCC23)cc1 (stereo not shown) | Criterion met |
| COc1ccc(S(=O)(=O)N(CC(C)C)CC(O)C(Cc2ccc(NCc3ccc(OC)cc3-c3sc4c(c3C(=O)O)CC(C)(C)CC4)cc2)NC(=O)OC2COC3(C)OCCC23)cc1 (stereo not shown) | Criterion not met |

Record COc1ccc(S(=O)(=O)N(CC(C)C)CC(O)C(Cc2ccc(NCc3nc(-c4sc5c(c4C(=O)O)CC(C)(C)CC5)cs3)cc2)NC(=O)OC2COC3(C)OCCC23)cc1 (stereo not shown) : is its IC50 strictly below 2 nM?
Criterion not met

Also CC(C)CN(CC(O)C(Cc1ccc(OCc2ccc(C(=O)O)c(-c3ccc(F)cc3F)n2)cc1)NC(=O)OC1COC2(C)OCCC12)S(=O)(=O)c1ccc2ncsc2c1 (stereo not shown) , if possible.
Criterion met

Also COc1ccc(S(=O)(=O)N(CC(C)C)CC(O)C(Cc2ccc(OCc3ccccc3-c3ccc4c(O)c(-c5ccc(Oc6ccccc6)cc5)c(=O)[nH]c4c3)cc2)NC(=O)OC2COC3OCCC23)cc1 (stereo not shown) , if possible.
Criterion not met

Also COc1ccc(S(=O)(=O)N(CC(C)C)CC(O)C(Cc2ccc(NCc3ccccc3C(=O)Nc3sc4c(c3C(=O)O)CC(C)(C)CC4)cc2)NC(=O)OC2COC3(C)OCCC23O)cc1 (stereo not shown) , if possible.
Criterion not met

Also COc1ccc(S(=O)(=O)N(CC(C)C)CC(O)C(Cc2ccc(NCc3cccc(C)c3-c3sc4c(c3C(=O)O)CC(C)(C)CC4)cc2)NC(=O)OC2COC3(C)OCCC23)cc1 (stereo not shown) , if possible.
Criterion not met

Also CC1(C)CCc2sc(-c3ccc(CN(CC(O)C(Cc4ccccc4)NC(=O)OC4COC5(C)OCCC45)S(=O)(=O)c4ccc5ncsc5c4)cc3)c(C(=O)O)c2C1 (stereo not shown) , if possible.
Criterion not met

---

run.description: Evaluation of total body clearance (CLtot), intravenous administration
Format: in vivo, Sprague-Dawley (SD)
measurement.conditions: rat (SD), intravenous administration 0.5-10 mg/kg; CLtot = dose/AUC
The following molecules are listed with their measured log10(rat_CLt) values.
On a log10 scale: recorded rat_CLt, unit mL/min/kg.

Guide cases for log10(rat_CLt), answers given:
| molecule | log10(rat_CLt) |
| --- | --- |
| COc1ccc(S(=O)(=O)N(CC(C)C)CC(O)C(Cc2ccc(N(C)Cc3cc(C(F)(F)F)ccc3-c3sc4c(c3C(=O)O)CC(C)(C)CC4)cc2)NC(=O)OC2COC3(C)OCCC23)cc1 (centres unmarked) [Compound I-451] | -0.68 |
| COc1ccc(S(=O)(=O)N(CC(C)C)CC(O)C(Cc2ccc(NCc3ncc(-c4sc5c(c4C(=O)O)CC(C)(C)CC5)s3)cc2)NC(=O)OC2COC3(C)OCCC23)cc1 (centres unmarked) [Compound I-297] | 0.55 |

Find the recorded log10(rat_CLt) belonging to COc1ccc(S(=O)(=O)N(CC(C)C)CC(O)C(Cc2ccc(Oc3ccc(C)c(-c4sc5c(c4C(=O)O)CC(C)(C)CC5)c3)cc2)NC(=O)OC2COC3(C)OCCC23)cc1 (centres unmarked) [Compound I-134] and report it.
0.59

Also COc1ccc(S(=O)(=O)N(CC(C)C)CC(O)C(Cc2ccc(NCc3ncccc3-c3ccc(-c4sc5c(c4C(=O)O)CC(C)(C)CC5)cc3)cc2)NC(=O)OC2COC3(C)OCCC23)cc1 (centres unmarked) [Compound I-415] , if possible.
-0.18

Also COc1ccc(S(=O)(=O)N(CC(C)C)CC(O)C(Cc2ccc(NCc3ccc(N4CCCC4=O)cc3-c3sc4c(c3C(=O)O)CC(C)(C)CC4)cc2)NC(=O)OC2COC3(C)OCCC23)cc1 (centres unmarked) [Compound I-742] , if possible.
0.70
